Assay: GC/MS of blood plasma sample: number of times of freezing and thawing (Table C)
Assay type: physicochemical, human
Settings: detection intensity relative to 1 at 2 times, freezing and thawing 4 times
Procedure: At room temperature, 5 mL of blood from a healthy subject was taken into a blood-collecting vessel containing EDTA, and the blood-collecting vessel was inverted for mixing, then cooled, and allowed to stand at 4° C. […]

- compound: "O=C(CO)[C@H](O)[C@H](O)CO"
  Rate of increase or decrease: 1.38
- compound: "CC(C)(CO)[C@@H](O)C(=O)NCCC(=O)O"
  Rate of increase or decrease: 3.07
- compound: "OB(O)O"
  Rate of increase or decrease: 1.56
- compound: "OC[C@H]1O[C@@](CO)(O[C@H]2O[C@H](CO)[C@@H](O)[C@H](O)[C@H]2O)[C@@H](O)[C@@H]1O"
  Rate of increase or decrease: 0.53
- compound: "O=C[C@H](O)[C@@H](O)[C@@H](O)[C@H](O)C(=O)O"
  Rate of increase or decrease: 1.44
- compound: "OC[C@H]1O[C@@H](O[C@H]2[C@H](O)[C@@H](O)C(O)O[C@@H]2CO)[C@H](O)[C@@H](O)[C@H]1O (stereo partly shown)"
  Rate of increase or decrease: 1.40
- compound: "O=C1O[C@H]([C@@H](O)CO)C(O)=C1O"
  Rate of increase or decrease: 1.41
- compound: "O=C(O)[C@H](O)[C@H](O)[C@H](O)CO"
  Rate of increase or decrease: 1.62
- compound: "CS(=O)(=O)CC[C@H](N)C(=O)O"
  Rate of increase or decrease: 1.77
- compound: "CCCCCC(=O)O"
  Rate of increase or decrease: 1.58
